Just for reference, patent US20160272693A1 is where these values come from.

Catalogue of hAMYR3 EC50 (nM); cAMP induction readings, one per entry.
# SYSTEM_TESTED: T1, human amylin receptor 3 (hAMYR3), hCTR2 co-expressed with human receptor activity modifying protein 3 (hRAMP3) (human, UniProt P30988 25-474; O60896 24-148)
# T1 sequence (looked up) 1: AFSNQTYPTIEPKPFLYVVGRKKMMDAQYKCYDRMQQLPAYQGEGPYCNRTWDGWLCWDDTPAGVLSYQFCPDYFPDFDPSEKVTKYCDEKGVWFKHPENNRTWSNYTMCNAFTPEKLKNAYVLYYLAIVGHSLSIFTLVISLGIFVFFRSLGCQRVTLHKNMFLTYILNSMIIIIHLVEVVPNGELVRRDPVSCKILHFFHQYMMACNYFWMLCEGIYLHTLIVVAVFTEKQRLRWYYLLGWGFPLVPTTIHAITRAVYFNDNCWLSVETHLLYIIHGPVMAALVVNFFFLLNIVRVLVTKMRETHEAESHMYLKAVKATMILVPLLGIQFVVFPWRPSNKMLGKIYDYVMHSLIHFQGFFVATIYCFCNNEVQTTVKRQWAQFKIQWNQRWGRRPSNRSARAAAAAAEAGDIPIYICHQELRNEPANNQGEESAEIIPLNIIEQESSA
# T1 sequence (looked up) 2: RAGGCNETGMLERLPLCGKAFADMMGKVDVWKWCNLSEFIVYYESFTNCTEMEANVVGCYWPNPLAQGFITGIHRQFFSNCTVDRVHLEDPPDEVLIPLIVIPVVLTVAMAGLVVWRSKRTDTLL
# EXPERIMENTAL_PROTOCOL: cell-based or functional assay
*1 amine or outer side, *2 acyl side, *3 side chain or, on linkers, in order; H or OH if unused. Bridges are numbered along the chain shown (N, C = ends). [ ]: non-standard residue; d: D form. The star is where a group is joined. C20 diacid = O=C(O)CCCCCCCCCCCCCCCCCCC(=O)*; γGlu = O=C(O)[C@H](CCC(=O)[*:2])N[*:1]; Hyp = O=C(O)[C@@H]1C[C@@H](O)CN1; NMeI = CC[C@H](C)[C@H](NC)C(=O)O; Sar = CNCC(=O)O
Value expressed in nM; do not type the unit.

Fill in the blank: the reported hAMYR3 EC50 (nM); cAMP induction of {C20 diacid}-[γGlu]RCGTATCATERLAHFLERSSF[Sar]A[NMeI]LSSTEVGSNT[Hyp]-NH2 (disulfide 3-8) [[19CD]-isoGlu-R-C( )-GTAT-C( )-ATERLAHFLERSSF-Gly(Me)-A-Ile(Me)-LSSTEVGSNT-Hyp-NH2 (Compd. 8)] is ____.
0.36

Fill in the blank: the reported hAMYR3 EC50 (nM); cAMP induction of {C20 diacid-γGlu}-RCQTATCATERLAHFLQRSSF[Sar]A[NMeI]LSSTEVGSGT[Hyp]-NH2 (disulfide 2-7) [[19CD]-isoGlu-R-C( )-QTAT-C( )-ATERLAHFLQRSSF-Gly(Me)-A-Ile(Me)-LSSTEVGSGT-Hyp-NH2 (Compd. 90)] is ____.
0.24

Fill in the blank: the reported hAMYR3 EC50 (nM); cAMP induction of {C20 diacid}-[γGlu]RCNTATCATQRLANFLHRSSF[Sar]A[NMeI]LSSTEVGSETP-NH2 (disulfide 3-8) [[19CD]-isoGlu-R-C( )-NTAT-C( )-ATQRLANFLHRSSF-Gly(Me)-A-Ile(Me)-LSSTEVGSETP-NH2 (Compd. 3)] is ____.
0.2

Fill in the blank: the reported hAMYR3 EC50 (nM); cAMP induction of {C20 diacid-γGlu}-RCNTATCATERLAHFLQRSSF[Sar]A[NMeI]LSSTEVGSNT[Hyp]-NH2 (disulfide 2-7) [[19CD]-isoGlu-R-C( )-NTAT-C( )-ATERLAHFLQRSSF-Gly(Me)-A-Ile(Me)-LSSTEVGSNT-Hyp-NH2 (Compd. 56)] is ____.
0.08

Fill in the blank: the reported hAMYR3 EC50 (nM); cAMP induction of {C20 diacid-γGlu}-RCNTATCATQRLAHFLHRSSF[Sar]A[NMeI]LSSTEVGSNTP-NH2 (disulfide 2-7) [[19CD]-isoGlu-R-C( )-NTAT-C( )-ATQRLAHFLHRSSF-Gly(Me)-A-Ile(Me)-LSSTEVGSNTP-NH2 (Compd. 16)] is ____.
0.11
